Please provide measured selectivity ratio for the entries that follow.
- TEST DESCRIPTION: Selectivity index, ratio of IC50 for cytotoxicity against human HK-2 cells to MIC for antibacterial activity against Escherichia coli ATCC BAA-2523
- Type: toxicity, cell-based
Bridge positions count the residues as written; N and C are the ends. Square brackets hold non-standard residues; d marks the D form. Peptide text beside a SMILES is read from it. * marks the point of attachment. Decanoyl(3R-OH) = CCCCCCC[C@@H](O)CC(=O)*; dDab = NCC[C@@H](N)C(=O)O; Dab = NCC[C@H](N)C(=O)O
Give the figure by itself; no unit, no explanation.

# query: selectivity ratio of entry CCCCCCC[C@@H](O)CC(=O)N[C@H](CCN)C(=O)N[C@H]1CCNC(=O)[C@H]([C@@H](C)O)NC(=O)[C@H](CCN)NC(=O)[C@H](CCN)NC(=O)[C@H]([C@@H](C)O)NC(=O)[C@@H](Cc2ccccc2)NC(=O)[C@H](CCN)NC1=O
828

# lookup: selectivity ratio of CCCCCCCCCC(=O)N[C@H](CCN)C(=O)N[C@H]1CCCNC(=O)[C@H]([C@@H](C)O)NC(=O)[C@H](CCN)NC(=O)[C@H](CCN)NC(=O)[C@H](CC(C)C)NC(=O)[C@@H](CC(C)C)NC(=O)[C@H](CCN)NC1=O
9.9

selectivity ratio for CCCCCCC[C@@H](O)CC(=O)N[C@H](CCN)C(=O)N[C@H]1CCNC(=O)[C@H]([C@@H](C)O)NC(=O)[C@H](CCN)NC(=O)[C@H](CCN)NC(=O)[C@H]([C@@H](C)O)NC(=O)[C@@H](CC(C)C)NC(=O)[C@H](CCN)NC1=O ?
205

What value of selectivity ratio has been reported for the following compound? CCCCCCC[C@@H](O)CC(=O)N[C@H](CCN)C(=O)N[C@H]1CCNC(=O)[C@H]([C@@H](C)O)NC(=O)[C@H](CCN)NC(=O)[C@H](CCN)NC(=O)[C@H](CC(C)C)NC(=O)[C@@H](Cc2ccccc2)NC(=O)[C@H](CCN)NC1=O ({Decanoyl(3R-OH)}-[dDab][Dab][Dab][dF]L[Dab][Dab]T; lactam 2-C)
125

Look at this compound and give its reported selectivity ratio. CCCCCCCCCC(=O)N[C@@H](C(=O)N[C@H]1CCNC(=O)[C@H]([C@@H](C)O)NC(=O)[C@H](CCN)NC(=O)[C@H](CCN)NC(=O)[C@H](CC(C)C)NC(=O)[C@@H](CC(C)C)NC(=O)[C@H](CCN)NC1=O)[C@H](C)O
3.8

Returns the measured selectivity ratio for the input compound. Input: CCCCCCC[C@@H](O)CC(=O)N[C@H](CO)C(=O)N[C@H](CCN)C(=O)N[C@H]1CCNC(=O)[C@H](CC(C)C)NC(=O)[C@H](CCN)NC(=O)[C@H](CCN)NC(=O)[C@H](Cc2ccccc2)NC(=O)[C@@H](CC(C)C)NC(=O)[C@H](CCN)NC1=O
13.9

Consider the compound CCCCCCCCCC(=O)N[C@H](CCN)C(=O)N[C@H]1CCNC(=O)[C@H]([C@@H](C)O)NC(=O)[C@H](CCN)NC(=O)[C@H](CCN)NC(=O)[C@H](CC(C)C)NC(=O)[C@@H](Cc2cccc(Cl)c2)NC(=O)[C@H](CCN)NC1=O and give its measured selectivity ratio.
21.3

I am curious: what selectivity ratio value has been reported for CCCCCCCC(=O)N[C@H](CCN)C(=O)N[C@H]1CCNC(=O)[C@H](CC(C)C)NC(=O)[C@H](CCN)NC(=O)[C@H](CCN)NC(=O)[C@H](CC(C)C)NC(=O)[C@@H](CC(C)C)NC(=O)[C@H](CCN)NC1=O ?
6.2

Give its selectivity ratio value. Item: CCCCCCCCCC(=O)N[C@H](CCN)C(=O)N[C@H]1CCNC(=O)[C@H](CC(C)C)NC(=O)[C@H](CCN)NC(=O)[C@H](CCN)NC(=O)[C@H](CC(C)C)NC(=O)[C@@H](CC(C)C)NC(=O)[C@H](CCN)NC1=O
3.3

Please report the recorded selectivity ratio for CC(C)C[C@@H]1NC(=O)[C@@H](CC(C)C)NC(=O)[C@H](CCN)NC(=O)[C@@H](NC(=O)[C@@H](CCN)NC(=O)CCCCCc2ccccc2)CCNC(=O)[C@H]([C@@H](C)O)NC(=O)[C@H](CCN)NC(=O)[C@H](CCN)NC1=O .
19.3

Give the measured selectivity ratio of CCCCCCCCCC(=O)N[C@H](CCN)C(=O)N[C@H]1CCNC(=O)[C@H]([C@@H](C)O)NC(=O)[C@H](CCN)NC(=O)[C@H](CCN)NC(=O)[C@H](CC(C)C)NC(=O)[C@@H](Cc2ccc(Cl)c(Cl)c2)NC(=O)[C@H](CCN)NC1=O .
14.3

Please report the recorded selectivity ratio for CCCCCCCCCC(=O)N[C@H](CCN)C(=O)N[C@H]1CCNC(=O)[C@H]([C@@H](C)O)NC(=O)[C@H](CCN)NC(=O)[C@H](CCN)NC(=O)[C@H](CC(C)C)NC(=O)[C@@H](Cc2ccc(Cl)cc2)NC(=O)[C@H](CCN)NC1=O .
48.1

Looking for the measured selectivity ratio of CCCCCCCCC(=O)N[C@H](CCN)C(=O)N[C@H]1CCNC(=O)[C@H](CC(C)C)NC(=O)[C@H](CCN)NC(=O)[C@H](CCN)NC(=O)[C@H](CC(C)C)NC(=O)[C@@H](CC(C)C)NC(=O)[C@H](CCN)NC1=O , can you help?
4.8

What selectivity ratio value was documented for this compound, CC(C)C[C@@H]1NC(=O)[C@@H](CC(C)C)NC(=O)[C@H](CCN)NC(=O)[C@@H](NC(=O)[C@@H](CCN)NC(=O)CCCCCC(C)(C)C)CCNC(=O)[C@H]([C@@H](C)O)NC(=O)[C@H](CCN)NC(=O)[C@H](CCN)NC1=O ?
1.3
